Values from ChEMBL document CHEMBL5329155

Assay: Aqueous solubility of compound in phosphate buffer at pH 7.4 incubated for 16 hrs by HPLC analysis
Format: physicochemical
Measure: solubility at 16 h (µg/mL)
Respond with the bare value in µg/mL.

>>> quantitative_readout("COc1ccc(-c2ccn(-c3ccc(NC(=O)Nc4ccc(F)cc4F)cc3)n2)cc1OC")
6

Consider the record given below.
Ask | Param item = COc1ccc(-c2ccn(-c3ccc(NC(=O)Nc4ccc(Cl)c(Cl)c4)cc3)n2)cc1OC ; retrieve measured solubility at 16 h.
Reply | 5

====

Tested on: Staphylococcus aureus
Assay: Antibacterial activity against methicillin/ceftriaxone/meropenem/vancomycin/teicoplanin resistant Staphylococcus aureus VRS 12 assessed as reduction in bacterial growth incubated for 18 to 24 hrs by broth dilution method
Assay type: functional
Conditions: time 18-24 hrs
Measure: MIC (µg/mL)
Respond with the bare value in µg/mL.

>>> quantitative_readout("COc1ccc(-c2ccn(-c3ccc(NC(=O)Nc4ccc(Cl)c(Cl)c4)cc3)n2)cc1OC")
0.25

Ask | Param item = C[C@H]1COc2c(N3CCN(C)CC3)c(F)cc3c(=O)c(C(=O)O)cn1c23 [LEVOFLOXACIN ANHYDROUS] ; retrieve measured MIC.
Reply | 32

Ask | Param item = C[C@@H](O)[C@H]1C(=O)N2C(C(=O)O)=C(S[C@@H]3CN[C@H](C(=O)N(C)C)C3)[C@H](C)[C@H]12 ; retrieve measured MIC.
Reply | 2
